Reference for the values: PubChem BioAssay (Tox21)

- test: qHTS assay to identify small molecule antagonists of the estrogen related receptor (ERR) signaling pathway from Tox21 library - cell viability counter screen (AID 1224834); note: nearly all actives have a fitted effect of over 30% in size
- settings: ERR reporter cells viability, CellTiter-Fluor, 17.5 h; series mostly up to 92.4 µM
Inconclusive results are not listed. The source made the active and inactive calls. Calls come from the whole dose curve; as a rule, active = well fitted cell-killing curve with a large enough effect in the repeat runs; inconclusive = weak or mixed curves; inactive = flat fitted curve, though single readings scatter.
Possible outcomes: 1 (yes) (active), 0 (no) (inactive)

- molecule: "Cc1cccc(Cc2cnc[nH]2)c1C"
  assignedLabel: "0 (no)"
- molecule: "CN(C)CCc1c[nH]c2ccccc12"
  assignedLabel: "0 (no)"
- molecule: "CC(=O)[O-].CC(=O)[O-].O.O.[Zn+2]"
  assignedLabel: "0 (no)"
- molecule: "C1=CCC=C1"
  assignedLabel: "0 (no)"
- molecule: "CC(=O)[O][Sn]([c]1ccccc1)([c]1ccccc1)[c]1ccccc1"
  assignedLabel: "1 (yes)"
- molecule: "Cc1ccc([N+](=O)[O-])[c]2c1[O][Hg]2"
  assignedLabel: "1 (yes)"
- molecule: "CNC(=O)O/N=C(\\C)C(C)S(C)(=O)=O (configuration not stated)"
  assignedLabel: "0 (no)"
- molecule: "O=C(O)[C@H](O)[C@@H](O)C(=O)O"
  assignedLabel: "0 (no)"
- molecule: "CCN1CCC2(CC1)COc1cc3c(cc12)N(C(=O)c1ccc(-c2ccc(-c4nnc(C)o4)cc2C)cc1)CC3"
  assignedLabel: "1 (yes)"
- molecule: "N#Cc1sc2c(=O)c3ccccc3c(=O)c=2sc1C#N"
  assignedLabel: "1 (yes)"
- molecule: "CC(C)N(C(=O)CCl)c1ccccc1"
  assignedLabel: "1 (yes)"
- molecule: "CCCCC/C=C\\C/C=C\\C/C=C\\C/C=C\\CCCC(=O)NCC(=O)O"
  assignedLabel: "0 (no)"

* * *

- test: qHTS assay to identify small molecule antagonists of the androgen receptor (AR) signaling pathway using the MDA cell line - cell viability counter screen (AID 743041; note: nearly all actives have a fitted effect of over 45% in size)
- settings: MDA-kb2 viability, CellTiter-Fluor, 16 h, cells co-treated with R1881 androgen agonist; series mostly up to 70.3 µM
Results filed as inconclusive are left out. Active and inactive are the calls of the source. Calls come from the whole dose curve; as a rule, active = well fitted cell-killing curve with a large enough effect in the repeat runs; inconclusive = weak or mixed curves, or effect the other way; inactive = flat fitted curve, though single readings scatter.
Outcome codes: true (1) (active), false (0) (inactive)

- compound: "O=[N+]([O-])C(Br)Br"
  assignedLabel: "false (0)"
- compound: "CCNS(=O)(=O)C(F)(F)C(F)(F)C(F)(F)C(F)(F)C(F)(F)C(F)(F)C(F)(F)C(F)(F)F"
  assignedLabel: "false (0)"
- compound: "CC(C)N(C(=O)SC/C(Cl)=C/Cl)C(C)C"
  assignedLabel: "false (0)"
- compound: "COc1ccc2[nH]cc(CCN(C(C)C)C(C)C)c2c1"
  assignedLabel: "false (0)"
- compound: "Cc1nn(-c2cc(NS(C)(=O)=O)c(Cl)cc2Cl)c(=O)n1C(F)F"
  assignedLabel: "false (0)"
- compound: "CO/N=C(\\C(=O)OC)c1ccccc1CO/N=C(\\C)c1cccc(C(F)(F)F)c1"
  assignedLabel: "true (1)"
- compound: "CN=C=O"
  assignedLabel: "false (0)"
- compound: "C[N+]1(C)[C@@H]2CC[C@H]1CC(OC(=O)C(CO)c1ccccc1)C2 (stereo partly drawn)"
  assignedLabel: "false (0)"
- compound: "O=[N+]([O-])[O-].[Tl+]"
  assignedLabel: "false (0)"
- compound: "ClC(Cl)C(Cl)(Cl)Cl"
  assignedLabel: "false (0)"
- compound: "CCC1(CC)C(=O)N=C(O)NC1=O"
  assignedLabel: "false (0)"
- compound: "CCC(C)c1cccc(C(C)CC)c1O (stereo not drawn)"
  assignedLabel: "false (0)"
- compound: "O=P(Cl)(Cl)Cl"
  assignedLabel: "false (0)"

* * *

- test: qHTS assay to identify small molecule antagonists of the estrogen receptor alpha (ER-alpha) signaling pathway using the BG1 cell line in the presence of 0.1 nM 17-beta-estradiol - cell viability counter screen (AID 1259241); note: nearly all actives have a fitted effect of over 40% in size
- settings: VM7Luc4E2 (BG1) viability, CellTiter-Fluor protease, 22 h, 0.1 nM estradiol agonist added; series mostly up to 92.4 µM
Results filed as inconclusive are left out. The source made the active and inactive calls. The call rests on the fitted dose curve; in most records, active means well fitted cell-killing curve with a large enough effect in the repeat runs; inconclusive means weak or mixed curves, or effect the other way; inactive means flat fitted curve, though single readings scatter.
Possible outcomes: Yes for active, No for inactive

- compound: "O.O.O.O.O.O.O.O=S(=O)([O-])[O-].[Co+2]"
  assignedLabel: "No"
- compound: "C1=CCC=C1"
  assignedLabel: "No"
- compound: "C=CC(=C)C"
  assignedLabel: "No"
- compound: "NC(=O)C(Cl)Cl"
  assignedLabel: "No"
- compound: "CC(=O)[O][Sn]([c]1ccccc1)([c]1ccccc1)[c]1ccccc1"
  assignedLabel: "Yes"
- compound: "Cc1cc(C2CC2)nc(Nc2ccccc2)n1"
  assignedLabel: "No"
- compound: "BrCC(Br)(Br)Br"
  assignedLabel: "No"
- compound: "O=[N+]([O-])C(Br)Br"
  assignedLabel: "No"
- compound: "c1csc(-c2ccc(-c3cccs3)s2)c1"
  assignedLabel: "No"
- compound: "CC[C@H](C)[C@H]1O[C@]2(C=C[C@@H]1C)C[C@@H]1C[C@@H](C/C=C(\\C)[C@@H](O[C@H]3C[C@H](OC)[C@@H](O[C@H]4C[C@H](OC)[C@@H](NC)[C@H](C)O4)[C@H](C)O3)[C@@H](C)/C=C/C=C3\\CO[C@@H]4[C@H](O)C(C)=C[C@@H](C(=O)O1)[C@]34O)O2"
  assignedLabel: "Yes"
- compound: "CCOP(=O)(Sc1ccccc1)Sc1ccccc1"
  assignedLabel: "No"
- compound: "O=NN(CCO)CCO"
  assignedLabel: "No"
- compound: "CC(=O)[O-].CC(=O)[O-].O.O.O.[Pb+2]"
  assignedLabel: "No"
- compound: "CNC(=O)O/N=C(\\C)C(C)S(C)(=O)=O (centres undefined)"
  assignedLabel: "No"
- compound: "BrCCCBr"
  assignedLabel: "No"
- compound: "ClC1=C(Cl)[C@]2(Cl)[C@H]3[C@H]([C@@H]4C=C[C@H]3C4)[C@@]1(Cl)C2(Cl)Cl"
  assignedLabel: "No"
- compound: "CN1[C@@H]2CC[C@H]1CC(O)C2 (some centres undefined)"
  assignedLabel: "No"
- compound: "O=C1C2(Cl)C3(Cl)C4(Cl)C(Cl)(Cl)C5(Cl)C3(Cl)C1(Cl)C5(Cl)C24Cl (centres undefined)"
  assignedLabel: "No"
- compound: "CCOP(=O)(OCC)Oc1nc(Cl)c(Cl)cc1Cl"
  assignedLabel: "No"
- compound: "O=C(N[C@H]1N=C(c2ccccc2F)c2cccc3c2N(CC3)C1=O)c1cc2ccccc2[nH]1"
  assignedLabel: "No"
- compound: "C=C(C)C(=O)[O][Sn]([CH2]CCC)([CH2]CCC)[CH2]CCC"
  assignedLabel: "Yes"
- compound: "Cc1cnc2c(C(=O)O)c(Cl)ccc2c1"
  assignedLabel: "No"
- compound: "ClSC(Cl)(Cl)Cl"
  assignedLabel: "No"
- compound: "CN1C(=O)[C@@H](NC(=O)c2cc3ccccc3[nH]2)N=C(c2ccccc2)c2ccccc21"
  assignedLabel: "No"
- compound: "Cc1ccn2nc(S(=O)(=O)Nc3c(F)cccc3F)nc2n1"
  assignedLabel: "No"
- compound: "Fc1ccc(C(OCCN2CCN(CCCc3ccccc3)CC2)c2ccc(F)cc2)cc1"
  assignedLabel: "Yes"
- compound: "CC(C)C(Nc1ccc(C(F)(F)F)cc1Cl)C(=O)OC(C#N)c1cccc(Oc2ccccc2)c1 (centres undefined)"
  assignedLabel: "No"
- compound: "CCCC[N+]1(C)CCCC1 (tested in a mixture with another compound)"
  assignedLabel: "No"
- compound: "O=S(=O)(O)F"
  assignedLabel: "No"
- compound: "CC(Cc1ccc(OCC(=O)O)cc1)NCC(O)c1csc(C(F)(F)F)n1 (centres undefined)"
  assignedLabel: "No"
- compound: "O=c1c2ccccc2c(=O)c2c1cc(Cl)c1[nH]c3c([nH]c12)c(Cl)cc1c(=O)c2ccccc2c(=O)c13"
  assignedLabel: "No"
- compound: "CN1C2CCC(C)(C)C1CC(OC(=O)C(O)(c1cccs1)c1cccs1)C2 (centres undefined)"
  assignedLabel: "No"
- compound: "CCNS(=O)(=O)C(F)(F)C(F)(F)C(F)(F)C(F)(F)C(F)(F)C(F)(F)C(F)(F)C(F)(F)F"
  assignedLabel: "No"
- compound: "CC(O)C(=O)[O][Hg][c]1ccccc1 (centres undefined)"
  assignedLabel: "Yes"
- compound: "ClC(Cl)C(Cl)(Cl)Cl"
  assignedLabel: "No"
- compound: "[Cl-].[Cl-].[Sn+2]"
  assignedLabel: "No"
- compound: "Oc1cc(Cl)cc(Cl)c1"
  assignedLabel: "No"
- compound: "CCOC(=O)Cc1ccccc1"
  assignedLabel: "No"
- compound: "Clc1ccc(C(Cl)(Cl)Cl)cc1Cl"
  assignedLabel: "No"
- compound: "Clc1ccc(C2(Cn3cncn3)OCCO2)c(Cl)c1"
  assignedLabel: "No"
- compound: "O=c1[nH]c2cc(Cl)ccc2n1C1CCNCC1"
  assignedLabel: "No"
- compound: "O=C(O)[C@H](O)[C@@H](O)C(=O)O"
  assignedLabel: "No"
- compound: "O=[N+]([O-])c1ccc(CCl)cc1"
  assignedLabel: "No"
- compound: "c1ccc2nc(N3CCNCC3)ccc2c1"
  assignedLabel: "No"
- compound: "CCC1(CC)C(=O)N=C(O)NC1=O"
  assignedLabel: "No"
- compound: "CC1(C)[C@H](/C=C2\\CCSC2=O)[C@@H]1C(=O)OCc1coc(Cc2ccccc2)c1"
  assignedLabel: "No"
- compound: "CN"
  assignedLabel: "No"
- compound: "O=[N+]([O-])c1ccc(Cl)c(Cl)c1Cl"
  assignedLabel: "No"
- compound: "CCN(CC)C(=O)N[C@@H]1C=C2c3cccc4[nH]cc(c34)C[C@@H]2N(C)C1"
  assignedLabel: "No"
